# tested-target: PDE4B (Homo sapiens)
# Construct: active site fragment comprising the amino acids 152-484
# procedure-details: PDE4B Scintillation Proximity (SPA) Assay
# test-context: PDE4B active site fragment amino acids 152-484; [3H]cAMP; 30° C., one hour; read-out: Experimentally determined IC50-value for PDE4B inhibition
The reader will find reported IC50 values listed item by item below.
Write it as a number; the unit nM goes unstated.

{"columns": ["compound", "tested-target", "IC50 (nM)"],
 "data": [
  ["O=C(O)c1ccc(OC2CCN(c3nc4c(c(NC5CCOCC5)n3)[S+]([O-])CC4)CC2)cc1 (stereo not shown) [Example 1.24]", "PDE4B (Homo sapiens)", 7],
  ["Cc1oc(C2CCN(c3nc4c(c(NC5(CO)CC5)n3)[S+]([O-])CC4)CC2)nc1-c1ccccc1 (stereo not shown) [Example 1.37]", "PDE4B (Homo sapiens)", 3.5],
  ["[O-][S+]1CCc2nc(N3CCC(Oc4ccncc4)CC3)nc(NC3CCOCC3)c21 (stereo not shown) [Example 1.34]", "PDE4B (Homo sapiens)", 8]
]}

Which measured IC50 belongs to CC(C)(O)C1(Nc2nc(N3CCC(c4ccc(Cl)cc4)CC3)nc3c2[S+]([O-])CC3)CC1 (stereo not shown) [Example 1.25] , tested on PDE4B (Homo sapiens)?
1.8

Which measured IC50 belongs to [O-][S+]1CCc2nc(N3CCC(c4cc(-c5ccco5)n[nH]4)CC3)nc(NC3CCOCC3)c21 (stereo not shown) [Example 1.19] , tested on PDE4B (Homo sapiens)?
3.46

* * *

# tested-target: PDE4B (Homo sapiens, UniProt Q07343)
# Construct: active site fragment comprising the amino acids 152-484
# Sequence (Q07343 324-656): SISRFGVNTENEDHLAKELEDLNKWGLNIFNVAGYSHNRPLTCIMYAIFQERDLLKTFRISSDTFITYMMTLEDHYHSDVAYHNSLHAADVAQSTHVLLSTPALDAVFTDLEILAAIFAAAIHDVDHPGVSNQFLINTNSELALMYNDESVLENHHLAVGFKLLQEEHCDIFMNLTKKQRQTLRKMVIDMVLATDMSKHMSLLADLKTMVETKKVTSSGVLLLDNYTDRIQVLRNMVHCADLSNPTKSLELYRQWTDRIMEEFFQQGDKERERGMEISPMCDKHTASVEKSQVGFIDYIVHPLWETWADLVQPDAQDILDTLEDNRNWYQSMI
# procedure-details: PDE4B Scintillation Proximity (SPA) Assay
# test-context: PDE4B active site fragment amino acids 152-484; [3H]cAMP; 30° C., one hour; read-out: Experimentally determined IC50-value for PDE4B inhibition
The reader will find reported pIC50 values listed item by item below.
Quick note: pIC50 means taking -log10 of the concentration in moles per liter.

{"columns": ["compound", "pIC50"],
 "data": [
  ["Cc1nc(C2CCN(c3nc4c(c(NC5(CO)CC5)n3)[S+]([O-])CC4)CC2)oc1-c1ccc(Cl)cc1 (stereo not shown)", 9.22],
  ["CN1C[C@@H](Nc2nc(N3CCC(c4ccc(Cl)cc4)CC3)nc3c2S(=O)(=O)CC3)CCC1=O", 7.27],
  ["CC(C)[C@H](CO)Nc1nc(N2CCC(c3ccc(Cl)cc3)CC2)nc2c1[S+]([O-])CC2 (stereo partly shown)", 7.62],
  ["COC1(c2ccc(Cl)cc2)CCN(c2nc3c(c(NC4CCOCC4)n2)[S+]([O-])CC3)CC1 (stereo not shown)", 8.42],
  ["[O-][S+]1CCc2nc(N3CCC(O)(c4ccc(Cl)cc4)CC3)nc(NC3CCOCC3)c21 (stereo not shown)", 8.17],
  ["[O-][S+]1CCc2nc(N3CCC(c4nc(-c5ccncc5)no4)CC3)nc(Nc3cccc(F)c3)c21 (stereo not shown)", 8.57],
  ["CN1C[C@@H](Nc2nc(N3CCC(c4nc5ccccc5o4)CC3)nc3c2[S+]([O-])CC3)CCC1=O (stereo partly shown)", 10.00],
  ["CCc1[nH]c2ccc(F)cc2c1C1CCN(c2nc3c(c(NC4(CO)CC4)n2)[S+]([O-])CC3)CC1 (stereo not shown)", 7.27],
  ["[O-][S+]1CCc2nc(N3CCC(Oc4ccc(Cl)cc4)CC3)nc(NC3CCOCC3)c21 (stereo not shown)", 8.41],
  ["CCC[C@H](CO)Nc1nc(N2CCC(c3ccc(Cl)cc3)CC2)nc2c1[S+]([O-])CC2 (stereo partly shown)", 8.08]
]}

Proceeding to the next compound to report its pIC50.
Give its pIC50 value. Item: [O-][S+]1CCc2nc(N3CCC(c4ccc(Cl)cc4)CC3)nc(NC3(CO)CCC3)c21 (stereo not shown)
8.37
